Observed IC50 for RET (Homo sapiens), reported per entry below.
Measurement Name: IC50

{"columns": ["Compound", "Measurement Name", "Measurement"],
 "data": [
  ["COCCOCc1cccc2[nH]c(-c3n[nH]c4ncc(-c5cncc6ccccc56)cc34)nc12 [Cpd 14]", "IC50", "~100 µM"],
  ["c1cncc(-c2cnc3[nH]nc(-c4nc5cc6c(cc5[nH]4)OCO6)c3c2)c1 [Cpd 99]", "IC50", "> 100 µM"],
  ["O=C(O)c1cccc2[nH]c(-c3n[nH]c4ncc(-c5cncc6ccccc56)cc34)nc12 [Cpd 17]", "IC50", "> 100 µM"],
  ["COCc1cccc2[nH]c(-c3nn(C)c4ncc(-c5cncc6ccccc56)cc34)nc12 [Cpd 33]", "IC50", "> 100 µM"],
  ["c1ccc2c(-c3cnc4[nH]nc(-c5nc6c(Cn7ccnc7)cccc6[nH]5)c4c3)cncc2c1 [Cpd 12]", "IC50", "~100 µM"],
  ["O=C(Nc1cccnc1)c1cccc2[nH]c(-c3n[nH]c4ncc(-c5cncc6ccccc56)cc34)nc12 [Cpd 48]", "IC50", "> 10 µM"],
  ["c1ccc2c(-c3cnc4[nH]nc(-c5nc6c(CN7CCCCC7)cccc6[nH]5)c4c3)cncc2c1 [Cpd 8]", "IC50", "> 10 µM"],
  ["COCc1cccc2[nH]c(-c3n[nH]c4ncc(-c5ccc(N6CCN(C(=O)OC(C)(C)C)CC6)nc5)cc34)nc12 [Cpd 67]", "IC50", "> 100 µM"]
]}

----------
The next entries give measured pIC50 for CDK1 (Homo sapiens, UniProt P06493).
pIC50: −log10 of the molar value.

{"columns": ["Compound Structure String", "pIC50"],
 "data": [
  ["COCCNCc1cncc(-c2cnc3[nH]nc(-c4nc5cc(N6CCN(C)CC6)ccc5[nH]4)c3c2)c1", 8.29],
  ["CC(C)OCc1cccc2[nH]c(-c3n[nH]c4ncc(-c5cncc6ccccc56)cc34)nc12", 7.01],
  ["CCN(CC)C(=O)c1cccc2[nH]c(-c3n[nH]c4ncc(-c5cncc6ccccc56)cc34)nc12", 7.27],
  ["FC1(F)Oc2cc3nc(-c4n[nH]c5ncc(-c6cccnc6)cc45)[nH]c3cc2O1", 8.18]
]}

----------
- Assay System: HER2 (Homo sapiens, UniProt P04626)
- Construct: GST (Glutathione-S-Transferase) (N); HIS6 (N); thrombin cleavage site (N)
- Sequence (P04626 679-1255): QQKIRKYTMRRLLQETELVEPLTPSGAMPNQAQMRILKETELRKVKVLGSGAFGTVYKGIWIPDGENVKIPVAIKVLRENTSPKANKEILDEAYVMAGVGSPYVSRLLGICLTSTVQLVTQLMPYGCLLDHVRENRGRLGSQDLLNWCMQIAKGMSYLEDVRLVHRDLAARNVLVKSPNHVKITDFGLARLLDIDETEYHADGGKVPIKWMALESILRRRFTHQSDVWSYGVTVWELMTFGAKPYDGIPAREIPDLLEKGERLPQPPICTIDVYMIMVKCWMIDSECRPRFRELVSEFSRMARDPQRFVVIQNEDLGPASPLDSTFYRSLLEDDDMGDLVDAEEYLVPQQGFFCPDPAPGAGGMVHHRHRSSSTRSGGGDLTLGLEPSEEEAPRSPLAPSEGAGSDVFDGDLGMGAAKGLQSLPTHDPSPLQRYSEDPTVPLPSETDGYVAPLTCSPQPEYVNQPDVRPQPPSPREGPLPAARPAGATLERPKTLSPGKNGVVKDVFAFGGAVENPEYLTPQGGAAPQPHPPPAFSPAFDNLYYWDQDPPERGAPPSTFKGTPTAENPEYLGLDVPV
- Assay Name: HER2 kinase screening assay (33P-ATP FlashPlate);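 note: Biotin-poly(GT) 4:1 peptide captured on streptavidin FlashPlate, 33P transfer from γ-ATP read by scintillation counting, lower incorporation means inhibition, 1% DMSO final, 100 µL reaction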
- Cond: GST-HIS6 HER-2 aa 679 to 1255; 10 μM ATP; 1 hr at 30° C

{"columns": ["Molecule", "Assay System", "IC50"],
 "data": [
  ["CC(C)OCc1cccc2[nH]c(-c3n[nH]c4ncc(-c5cncc6ccccc56)cc34)nc12 [Cpd 32]", "HER2 (Homo sapiens, UniProt P04626)", "> 100 µM"],
  ["COCCOCc1cccc2[nH]c(-c3n[nH]c4ncc(-c5cncc6ccccc56)cc34)nc12 [Cpd 14]", "HER2 (Homo sapiens, UniProt P04626)", "> 100 µM"],
  ["CN(C)CCNC(=O)c1cccc2[nH]c(-c3n[nH]c4ncc(-c5cncc6ccccc56)cc34)nc12 [Cpd 25]", "HER2 (Homo sapiens, UniProt P04626)", "> 10 µM"],
  ["COCc1cccc2[nH]c(-c3n[nH]c4ncc(-c5cccnc5)cc34)nc12 [Cpd 35]", "HER2 (Homo sapiens, UniProt P04626)", "> 100 µM"],
  ["CN1CCN(c2ccc3[nH]c(-c4n[nH]c5ncc(-c6cccnc6)cc45)nc3c2)CC1 [Cpd 89]", "HER2 (Homo sapiens, UniProt P04626)", "31.8 µM"],
  ["c1ccc2c(-c3cnc4[nH]nc(-c5nc6c(COCCN7CCOCC7)cccc6[nH]5)c4c3)cncc2c1 [Cpd 15]", "HER2 (Homo sapiens, UniProt P04626)", "~100 µM"],
  ["O=C(O)c1cccc2[nH]c(-c3n[nH]c4ncc(-c5cncc6ccccc56)cc34)nc12 [Cpd 17]", "HER2 (Homo sapiens, UniProt P04626)", "> 100 µM"],
  ["COCc1cccc2[nH]c(-c3n[nH]c4ncc(-c5cncc(CN(C)C)c5C)cc34)nc12 [Cpd 61]", "HER2 (Homo sapiens, UniProt P04626)", "> 10 µM"],
  ["CN1CCN(c2ccc3[nH]c(-c4n[nH]c5ncc(-c6cncc7ccccc67)cc45)nc3c2)CC1 [Cpd 31]", "HER2 (Homo sapiens, UniProt P04626)", "6.51 µM"],
  ["CCOC(=O)c1cncc(-c2cnc3[nH]nc(-c4nc5c(COC)cccc5[nH]4)c3c2)c1 [Cpd 70]", "HER2 (Homo sapiens, UniProt P04626)", "> 100 µM"],
  ["COC(=O)c1cccc2[nH]c(-c3n[nH]c4ncc(-c5cncc6ccccc56)cc34)nc12 [Cpd 108]", "HER2 (Homo sapiens, UniProt P04626)", "> 100 µM"],
  ["COCc1cccc2[nH]c(-c3n[nH]c4ncc(-c5ccc(N6CCN(C(=O)OC(C)(C)C)CC6)nc5)cc34)nc12 [Cpd 67]", "HER2 (Homo sapiens, UniProt P04626)", "> 100 µM"],
  ["COCc1cccc2[nH]c(-c3n[nH]c4ncc(-c5ccc(F)nc5)cc34)nc12 [Cpd 71]", "HER2 (Homo sapiens, UniProt P04626)", "> 100 µM"],
  ["COCc1cccc2[nH]c(-c3n[nH]c4ncc(-c5cncc6ccccc56)cc34)nc12 [Cpd 4]", "HER2 (Homo sapiens, UniProt P04626)", "0.0851 µM"],
  ["CC(C)NCc1cncc(-c2cnc3[nH]nc(-c4nc5cc(N6CCN(C)CC6)ccc5[nH]4)c3c2)c1 [Cpd 83]", "HER2 (Homo sapiens, UniProt P04626)", "1.49 µM"],
  ["CN1CCC(NC(=O)c2cccc3[nH]c(-c4n[nH]c5ncc(-c6cncc7ccccc67)cc45)nc23)CC1 [Cpd 28]", "HER2 (Homo sapiens, UniProt P04626)", "> 10 µM"],
  ["COCc1cccc2[nH]c(-c3n[nH]c4ncc(-c5cncc(OC)c5)cc34)nc12 [Cpd 64]", "HER2 (Homo sapiens, UniProt P04626)", "> 100 µM"],
  ["CCCCNCc1cncc(-c2cnc3[nH]nc(-c4nc5cc(OC)ccc5[nH]4)c3c2)c1 [Cpd 104]", "HER2 (Homo sapiens, UniProt P04626)", "1.88 µM"],
  ["CNCc1cncc(-c2cnc3[nH]nc(-c4nc5cc(OC(F)(F)F)ccc5[nH]4)c3c2)c1 [Cpd 96]", "HER2 (Homo sapiens, UniProt P04626)", "3.82 µM"],
  ["CCCCNCc1cncc(-c2cnc3[nH]nc(-c4nc5c(COC)cccc5[nH]4)c3c2)c1 [Cpd 79]", "HER2 (Homo sapiens, UniProt P04626)", "> 10 µM"],
  ["CCN(CC)C(=O)c1cccc2[nH]c(-c3n[nH]c4ncc(-c5cncc6ccccc56)cc34)nc12 [Cpd 19]", "HER2 (Homo sapiens, UniProt P04626)", "~100 µM"],
  ["CN1CCN(c2ccc3[nH]c(-c4n[nH]c5ncc(-c6cncc(CN7CCCC7)c6)cc45)nc3c2)CC1 [Cpd 87]", "HER2 (Homo sapiens, UniProt P04626)", "12.1 µM"],
  ["CCNCc1cncc(-c2cnc3[nH]nc(-c4nc5cc(OC)ccc5[nH]4)c3c2)c1 [Cpd 101]", "HER2 (Homo sapiens, UniProt P04626)", "4.17 µM"]
]}

----------
- Tested on: HCT-116 colon carcinoma
- Assay Name: Cell Proliferation Inhibition Assay (14C-thymidine incorporation), HCT-116;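 note: proliferation measured as methyl 14C-thymidine uptake into new DNA, counted in 96-well scintillating microplates, compared with DMSO-only control wells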
- Assay type: cell-based
- Cond: Homo sapiens, HCT-116, HCT-116 cells
pIC50: −log10 of the molar value.
Recorded pIC50 values for a group of molecules are listed next.

{"columns": ["Compound Structure String", "pIC50"],
 "data": [
  ["CN(C)CCNC(=O)c1cccc2[nH]c(-c3n[nH]c4ncc(-c5cncc6ccccc56)cc34)nc12", 5.91],
  ["CN1CCN(c2ccc3[nH]c(-c4n[nH]c5ncc(-c6cncc(CN7CCOCC7)c6)cc45)nc3c2)CC1", 6.13],
  ["CCN(CC)Cc1cccc2[nH]c(-c3n[nH]c4ncc(-c5cccnc5)cc34)nc12", 6.46],
  ["COCc1cccc2[nH]c(-c3n[nH]c4ncc(-c5cncc(CNC(C)(C)C)c5)cc34)nc12", 6.41],
  ["COC(=O)c1ccc2[nH]c(-c3n[nH]c4ncc(-c5cccnc5)cc34)nc2c1", 6.41],
  ["CNCc1cncc(-c2cnc3[nH]nc(-c4nc5cc6c(cc5[nH]4)OC(F)(F)O6)c3c2)c1", 6.63],
  ["COCc1cccc2[nH]c(-c3n[nH]c4ncc(-c5cncc(CN)c5)cc34)nc12", 6.38],
  ["COCc1cccc2[nH]c(-c3n[nH]c4ncc(-c5ccc(OC)nc5)cc34)nc12", 6.92],
  ["CN(C)c1ccc(NC(=O)c2cccc3[nH]c(-c4n[nH]c5ncc(-c6cncc7ccccc67)cc45)nc23)cc1", 6.37],
  ["COCc1cccc2[nH]c(-c3n[nH]c4ncc(-c5cccnc5)cc34)nc12", 7.73],
  ["OCCOc1ccc2[nH]c(-c3n[nH]c4ncc(-c5cccnc5)cc34)nc2c1", 5.85]
]}

Attribution: patent US7541367B2
